The origin of these recorded values is patent US20030220310A1.

# Assay protocol: Thermogravimetric analysis of solvates (desolvation)
# Type: physicochemical
# Study conditions: eplerenone crystalline solvate; extrapolated from final solvent weight loss step, TGA, 10° C./minute, nitrogen purge

| Compound | Desolvation Temperature |
| --- | --- |
| C1CCOC1 [Tetrahydrofuran] | 136 °C |
| CC(C)=O [Acetone] | 117 °C |
| CC(=O)OC(C)(C)C [t-Butyl Acetate] | 109 °C |
| COC(C)=O [Methyl Acetate] | 103 °C |
| CCCCCCCCO [n-Octanol] | 116 °C |
| CCC(C)=O [Methyl Ethyl Ketone] | 89 °C |
| CC(O)CO (stereo not shown) [Propylene Glycol] | 188 °C |
| CC(=O)OCC(C)C [Isobutyl Acetate] | 112 °C |
| CCOC(=O)CC [Ethyl Propionate] | 122 °C |
| CCO [Ethanol] | 166 °C |
